target: Opioid receptor (Rattus norvegicus, UniProt P33533+P34975+P33535); assay: In vitro opioid receptor binding competition against 1 nM [3H]- Naltrexone in the absence of NaCl.; assay type: protein assay
Entries and their IC50
QUANTITY NAME: IC50 (nM)

[[record]]
compound = "C=C1CC2(CCC3(O)[C@H]4Cc5ccc(O)c6c5[C@@]3(CCN4C)C2O6)OC1=O (stereo in doubt; 6b)"
quantity_name = "IC50"
experimental_result = 125

[[record]]
compound = "C=C1C(=O)OC2C1CC1(O)[C@H]3Cc4ccc(O)c5c4[C@@]1(CCN3CC1CC1)C2O5 (some centres not stated)"
quantity_name = "IC50"
experimental_result = 10

[[record]]
compound = "CC1CC2(CCC3(O)[C@H]4Cc5ccc(O)c6c5[C@@]3(CCN4CC3CC3)C2O6)OC1=O (some centres not stated)"
quantity_name = "IC50"
experimental_result = 10

[[record]]
compound = "Oc1ccc2c3c1OC1C4(CCC5(O)[C@@H](C2)N(CC2CC2)CC[C@]315)CO4 (stereo in doubt; 12a)"
quantity_name = "IC50"
experimental_result = 4

[[record]]
compound = "CC1=CC2(CCC3(O)C4Cc5ccc(O)c6c5[C@@]3(CCN4C)C2O6)OC1=O (some centres not stated)"
quantity_name = "IC50"
experimental_result = 200

[[record]]
compound = "CCOC(=O)[C@H]1OC12CCC1(O)C3Cc4ccc(O)c5c4[C@@]1(CCN3C)C2O5 (some centres not stated)"
quantity_name = "IC50"
experimental_result = 70

[[record]]
compound = "CCOC(=O)[C@H]1OC12CCC1(O)[C@H]3Cc4ccc(O)c5c4[C@@]1(CCN3CC1CC1)C2O5 (some centres not stated)"
quantity_name = "IC50"
experimental_result = 2.3

[[record]]
compound = "CCOC(=O)[C@@H]1OC12CCC1(O)[C@H]3Cc4ccc(O)c5c4[C@@]1(CCN3CC1CC1)C2O5 (some centres not stated)"
quantity_name = "IC50"
experimental_result = 6

[[record]]
compound = "Oc1ccc2c3c1OC1C4(CCC5(O)[C@@H](C2)N(CC2CC2)CC[C@]315)CO4 (stereo in doubt; 13a)"
quantity_name = "IC50"
experimental_result = 5.1

[[record]]
compound = "C=C1CC2(CCC3(O)[C@H]4Cc5ccc(O)c6c5[C@@]3(CCN4C)C2O6)OC1=O (stereo in doubt; 5b)"
quantity_name = "IC50"
experimental_result = 35

[[record]]
compound = "C=C1CC2(CCC3(O)[C@H]4Cc5ccc(O)c6c5[C@@]3(CCN4CC3CC3)C2O6)OC1=O (stereo in doubt; 5a)"
quantity_name = "IC50"
experimental_result = 5

[[record]]
compound = "CN1CC[C@]23c4c5ccc(O)c4OC2C2(CCC3(O)C1C5)CO2 (some centres not stated)"
quantity_name = "IC50"
experimental_result = 8


Measured values drawn from ChEMBL document CHEMBL1123075 for this set.
